meta.source: patent US10517889B2

System: human SMAD7 mRNA
Assay: Antisense inhibition of human SMAD7 mRNA expression in Hep3B cells by 3-10-3 cEt gapmers, 10,000 nM, electroporation (Example 2)
Assay type: cell-based
Conditions: Hep3B cells, electroporation with 10,000 nM antisense oligonucleotide, approximately 24 hours, SMAD7 mRNA by RT-PCR (RTS5062), relative to untreated control cells
Strand notation (5' to 3'): a small letter for the sugar, then the base; units joined by * are phosphorothioate-linked, units joined directly phosphodiester-linked; [ ] holds rarer units or linkages, { } end groups; capitals alone tell only the bases. k = constrained ethyl (cEt); [5mC] = 5-methylcytosine; d = 2'-deoxy (DNA)
quantity: % Inhibition (%)
Answers are plain numbers, in %.

For orientation, consider the following solved cases.
799353 (kT*k[5mC]*kT*dT*dT*dT*dA*dG*d[5mC]*d[5mC]*d[5mC]*dA*dA*k[5mC]*kT*kG; antisense) [compound 799353]
45
799412 (antisense kT*kT*k[5mC]*dT*dT*dA*d[5mC]*dA*d[5mC]*dA*dG*d[5mC]*dA*kG*k[5mC]*kG) [compound 799412]
60

We next turn to a different substance, shown below.
// returns reported % Inhibition for input 799448 (antisense kG*kT*kA*dA*dA*dA*dT*dG*dA*dA*dT*dG*dA*k[5mC]*kT*kG) [compound 799448] 41

---

Please go through the items and note down their % Inhibition.
Test system: human SMAD7 mRNA
Test: Antisense inhibition of human SMAD7 mRNA expression in Hep3B cells by 3-10-3 cEt gapmers, 10,000 nM, electroporation (Example 2)
Assay type: cell-based
Details: Hep3B cells, 10,000 nM antisense oligonucleotide, electroporation, approximately 24 hours, RT-PCR primer probe set RTS5062, relative to untreated control cells
Strand notation (5' to 3'): a small letter for the sugar, then the base; units joined by * are phosphorothioate-linked, units joined directly phosphodiester-linked; [ ] holds rarer units or linkages, { } end groups; capitals alone tell only the bases. k = constrained ethyl (cEt); [5mC] = 5-methylcytosine; d = 2'-deoxy (DNA)
One number for each entry, in %.

For orientation, consider the following solved cases.
800049 (antisense kA*kA*k[5mC]*dA*dA*dA*d[5mC]*d[5mC]*dT*dG*dG*d[5mC]*d[5mC]*kT*kG*kG) [compound 800049]
7
798858 (kG*kG*kT*dA*dA*d[5mC]*dT*dG*d[5mC]*dT*dG*d[5mC]*dG*kG*kT*kT; antisense) [compound 798858]
46
798820 (kT*k[5mC]*kT*d[5mC]*d[5mC]*dT*d[5mC]*d[5mC]*d[5mC]*dA*dG*dT*dA*kT*kG*k[5mC]; antisense) [compound 798820]
24

# batch size: 6; output % Inhibition per entry
1. 799959 (antisense kA*kG*k[5mC]*dT*dT*dG*dT*dG*dG*dA*dG*dA*dG*kT*kG*k[5mC]) [compound 799959]
2. 798908 (k[5mC]*kG*k[5mC]*dG*dG*d[5mC]*dT*dA*d[5mC]*d[5mC]*dG*dG*d[5mC]*kT*kG*kT; antisense) [compound 798908]
3. 800031 (kA*kG*kA*dA*dA*d[5mC]*dA*d[5mC]*dA*dG*dT*dT*d[5mC]*k[5mC]*k[5mC]*kT; antisense) [compound 800031]
4. 799955 (antisense k[5mC]*kG*k[5mC]*dT*d[5mC]*dA*dG*dA*dA*dA*dA*dT*dG*k[5mC]*k[5mC]*k[5mC]) [compound 799955]
5. 799893 (antisense kA*kT*kA*d[5mC]*dA*dA*dA*d[5mC]*d[5mC]*dA*d[5mC]*dT*dG*k[5mC]*kA*kT) [compound 799893]
6. 799910 (antisense k[5mC]*k[5mC]*kA*dA*d[5mC]*dT*d[5mC]*d[5mC]*dA*dT*dT*d[5mC]*dA*kT*kA*kA) [compound 799910]

1
0
52
50
0
36

# batch size: 3; output % Inhibition per entry
1. 798872 (kT*kA*kG*dT*d[5mC]*dG*dA*dA*dA*dG*d[5mC]*d[5mC]*dT*kT*kG*kA; antisense) [compound 798872]
2. 798855 (kT*kT*kG*dT*dA*d[5mC]*dA*d[5mC]*d[5mC]*d[5mC]*dA*d[5mC]*dA*k[5mC]*kA*k[5mC]; antisense) [compound 798855]
3. 799998 (k[5mC]*kA*kG*dT*dA*dA*dA*dG*dA*d[5mC]*dA*dT*dG*kA*kG*k[5mC]; antisense) [compound 799998]

[2, 11, 45]

---

Test system: human peripheral blood mononuclear cells (PBMCs)
Assay: Human PBMC activation assay, cytokine levels (IL-10, IL-6, MCP-1, TNF-α) in supernatant after 24 hours (Example 9)
Conditions: human PBMC supernatant after 24 hours; 8 μM oligonucleotide
quantity: Levels of TNF-α (pg/mL)
Numbers only, in pg/mL.

For orientation, consider the following solved cases.
790615 (CCAATGAGAATGCTTC; 3-10-3 cEt gapmer, further chemistry not given here) [compound 790615]
4.8
829994 (GGAGGCAGGGCCGCGA; 3-10-3 cEt gapmer, further chemistry not given here) [compound 829994]
63.2
736697 (antisense GTCGCCCCTTCTCCCCGCAGC; chemistry not fully specified) [compound 736697]
13.6
830037 (antisense CTATTGGCTGATCTGG; 3-10-3 cEt gapmer, further chemistry not given here) [compound 830037]
11.1
830121 (AGAATCAAGCCCTGGC; 3-10-3 cEt gapmer, further chemistry not given here) [compound 830121]
4.8

# batch size: 2; output Levels of TNF-α per entry
1. 830025 (antisense TTTGTAAATCGAAAGC; 3-10-3 cEt gapmer, further chemistry not given here) [compound 830025]
2. 798781 (CGTAAGATTCACAGCA; 3-10-3 cEt gapmer, further chemistry not given here) [compound 798781]

1. 6.7
2. 6.5

---

Tested on: human SMAD7 mRNA
Assay: Antisense inhibition of human SMAD7 mRNA expression in Hep3B cells by 3-10-3 cEt gapmers, 10,000 nM, electroporation (Example 2)
Assay type: cell-based
Settings: SMAD7 mRNA, Hep3B cells, 10,000 nM antisense oligonucleotide, electroporation, approximately 24 hours, primer probe set RTS5062, relative to untreated control cells
Strand notation (5' to 3'): a small letter for the sugar, then the base; units joined by * are phosphorothioate-linked, units joined directly phosphodiester-linked; [ ] holds rarer units or linkages, { } end groups; capitals alone tell only the bases. k = constrained ethyl (cEt); [5mC] = 5-methylcytosine; d = 2'-deoxy (DNA)
Please go through the items and note down their % Inhibition.
Give bare numbers, in %.

For orientation, consider the following solved cases.
772808 (k[5mC]*k[5mC]*k[5mC]*d[5mC]*dA*dT*dT*d[5mC]*dA*dT*dT*dA*dA*kG*k[5mC]*k[5mC]; antisense) [compound 772808]
34
829730 (antisense kG*k[5mC]*kA*dG*dG*d[5mC]*dG*d[5mC]*dA*dG*dG*d[5mC]*dG*kA*k[5mC]*kA) [compound 829730]
23
800883 (antisense kA*k[5mC]*k[5mC]*dA*dT*dT*dT*dA*dT*d[5mC]*dT*dG*dG*kT*kG*kT) [compound 800883]
50
772604 (kA*kT*kT*d[5mC]*d[5mC]*d[5mC]*d[5mC]*dT*dG*dA*dG*dG*dT*kA*kG*kA; antisense) [compound 772604]
48
772732 (kG*kA*kT*dA*dT*dT*dT*dA*dG*d[5mC]*dT*dG*dT*k[5mC]*kA*kG; antisense) [compound 772732]
58

# batch size: 7; output % Inhibition per entry
1. 772553 (antisense kT*k[5mC]*kT*dT*dG*dA*dG*d[5mC]*dA*d[5mC]*d[5mC]*dG*dA*kG*kT*kG) [compound 772553]
2. 829785 (antisense kA*kT*kG*d[5mC]*d[5mC]*dT*dG*dA*dG*dA*dT*d[5mC]*d[5mC]*kG*kG*k[5mC]) [compound 829785]
3. 801003 (antisense kG*kA*kA*dT*d[5mC]*dA*dA*dG*d[5mC]*d[5mC]*d[5mC]*dT*dG*kG*k[5mC]*kT) [compound 801003]
4. 829740 (antisense k[5mC]*kT*kG*d[5mC]*dT*dA*dA*dG*dG*dA*dG*d[5mC]*dG*kA*kA*k[5mC]) [compound 829740]
5. 829746 (antisense k[5mC]*k[5mC]*kG*dG*dG*d[5mC]*dG*d[5mC]*dA*d[5mC]*dG*dG*d[5mC]*kT*k[5mC]*k[5mC]) [compound 829746]
6. 772738 (kA*k[5mC]*k[5mC]*dA*dG*dT*dT*dG*dG*dT*dT*dT*dG*kA*kG*kA; antisense) [compound 772738]
7. 790519 (k[5mC]*kT*kG*dG*dA*dG*dT*d[5mC]*d[5mC]*dG*dG*dG*dT*kT*kG*kT; antisense) [compound 790519]

[59, 27, 38, 52, 46, 16, 8]
